- system: UniProtKB O60674
- Sequence (O60674 whole entry, species assumed): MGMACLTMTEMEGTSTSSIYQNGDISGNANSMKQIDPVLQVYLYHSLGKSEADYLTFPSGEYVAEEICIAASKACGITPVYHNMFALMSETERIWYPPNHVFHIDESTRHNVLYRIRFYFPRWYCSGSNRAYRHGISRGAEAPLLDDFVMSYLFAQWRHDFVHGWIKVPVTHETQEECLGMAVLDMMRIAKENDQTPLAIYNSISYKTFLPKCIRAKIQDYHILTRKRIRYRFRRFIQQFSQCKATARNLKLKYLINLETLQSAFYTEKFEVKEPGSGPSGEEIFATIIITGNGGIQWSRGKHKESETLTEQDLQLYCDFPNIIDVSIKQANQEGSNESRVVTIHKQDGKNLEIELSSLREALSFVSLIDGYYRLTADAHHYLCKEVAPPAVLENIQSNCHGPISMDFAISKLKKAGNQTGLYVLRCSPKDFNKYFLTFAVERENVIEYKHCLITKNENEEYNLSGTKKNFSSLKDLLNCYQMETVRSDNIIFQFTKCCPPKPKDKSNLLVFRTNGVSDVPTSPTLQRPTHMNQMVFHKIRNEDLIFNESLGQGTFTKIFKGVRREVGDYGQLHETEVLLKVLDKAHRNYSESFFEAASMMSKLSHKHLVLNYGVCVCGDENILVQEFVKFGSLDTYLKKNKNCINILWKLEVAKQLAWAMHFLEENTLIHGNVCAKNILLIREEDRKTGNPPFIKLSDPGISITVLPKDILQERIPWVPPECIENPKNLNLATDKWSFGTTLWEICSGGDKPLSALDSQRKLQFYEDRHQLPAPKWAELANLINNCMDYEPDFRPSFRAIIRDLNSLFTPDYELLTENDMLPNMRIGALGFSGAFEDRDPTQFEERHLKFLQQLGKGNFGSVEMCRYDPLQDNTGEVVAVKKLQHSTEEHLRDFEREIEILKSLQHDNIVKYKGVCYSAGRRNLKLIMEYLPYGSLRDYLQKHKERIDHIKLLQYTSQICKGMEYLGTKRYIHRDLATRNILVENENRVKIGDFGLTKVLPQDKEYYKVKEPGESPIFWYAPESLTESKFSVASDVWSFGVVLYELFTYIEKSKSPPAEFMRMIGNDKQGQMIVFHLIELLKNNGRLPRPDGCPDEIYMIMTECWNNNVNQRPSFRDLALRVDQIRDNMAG
- assay.remarks: JAK2 Inhibition Assay
- Assay type: biochemical
- assay.context: 5 nM JAK-2 enzyme, 15 μM poly(Glu)4Tyr, 12 μM ATP; kind of constant not given
JAK2 (μM), inhibition data vs 0.003 µM: at or above is yes (1), below is no (0).

Exam item: I'd appreciate it if you could say whether CC(C)(Nc1nc(-c2c[nH]c3ncccc23)ncc1F)C(=O)NCC(F)(F)F [compound 4] has JAK2 (μM), inhibition data at least equal to 0.003 µM.
Marked response: yes (1)

Exam item: I'd appreciate it if you could say whether CC(C)[C@](C)(Nc1ccnc(-c2c[nH]c3ncccc23)n1)C(=O)NCC(F)(F)F [compound 5] has JAK2 (μM), inhibition data at least equal to 0.003 µM.
Marked response: yes (1)

Exam item: I'd appreciate it if you could say whether CC(C)(Nc1ccnc(-c2c[nH]c3ncccc23)n1)C(=O)NCC(F)(F)F [compound 2] has JAK2 (μM), inhibition data at least equal to 0.003 µM.
Marked response: yes (1)

Exam item: I'd appreciate it if you could say whether CC[C@](C)(Nc1nc(-c2c[nH]c3ncccc23)ncc1F)C(=O)NCC(F)(F)F [compound 3] has JAK2 (μM), inhibition data at least equal to 0.003 µM.
Marked response: yes (1)

Exam item: I'd appreciate it if you could say whether CC[C@](C)(Nc1ccnc(-c2c[nH]c3ncc(Cl)cc23)n1)C(=O)NCC(F)(F)F [compound 14] has JAK2 (μM), inhibition data at least equal to 0.003 µM.
Marked response: no (0)

Exam item: I'd appreciate it if you could say whether CC(C)[C@](C)(Nc1nc(-c2c[nH]c3ncc(Cl)cc23)ncc1F)C(=O)NCC(F)(F)F [compound 10] has JAK2 (μM), inhibition data at least equal to 0.003 µM.
Marked response: no (0)

Exam item: I'd appreciate it if you could say whether CCNC(=O)C(C)(C)Nc1ncnc(-c2c[nH]c3ncccc23)n1 [compound 8] has JAK2 (μM), inhibition data at least equal to 0.003 µM.
Marked response: yes (1)

###

What JAK3 (μM), inhibition data was measured for each of the following?
- system: JAK3 (Homo sapiens, UniProt P52333)
- Sequence (P52333 whole entry, species assumed): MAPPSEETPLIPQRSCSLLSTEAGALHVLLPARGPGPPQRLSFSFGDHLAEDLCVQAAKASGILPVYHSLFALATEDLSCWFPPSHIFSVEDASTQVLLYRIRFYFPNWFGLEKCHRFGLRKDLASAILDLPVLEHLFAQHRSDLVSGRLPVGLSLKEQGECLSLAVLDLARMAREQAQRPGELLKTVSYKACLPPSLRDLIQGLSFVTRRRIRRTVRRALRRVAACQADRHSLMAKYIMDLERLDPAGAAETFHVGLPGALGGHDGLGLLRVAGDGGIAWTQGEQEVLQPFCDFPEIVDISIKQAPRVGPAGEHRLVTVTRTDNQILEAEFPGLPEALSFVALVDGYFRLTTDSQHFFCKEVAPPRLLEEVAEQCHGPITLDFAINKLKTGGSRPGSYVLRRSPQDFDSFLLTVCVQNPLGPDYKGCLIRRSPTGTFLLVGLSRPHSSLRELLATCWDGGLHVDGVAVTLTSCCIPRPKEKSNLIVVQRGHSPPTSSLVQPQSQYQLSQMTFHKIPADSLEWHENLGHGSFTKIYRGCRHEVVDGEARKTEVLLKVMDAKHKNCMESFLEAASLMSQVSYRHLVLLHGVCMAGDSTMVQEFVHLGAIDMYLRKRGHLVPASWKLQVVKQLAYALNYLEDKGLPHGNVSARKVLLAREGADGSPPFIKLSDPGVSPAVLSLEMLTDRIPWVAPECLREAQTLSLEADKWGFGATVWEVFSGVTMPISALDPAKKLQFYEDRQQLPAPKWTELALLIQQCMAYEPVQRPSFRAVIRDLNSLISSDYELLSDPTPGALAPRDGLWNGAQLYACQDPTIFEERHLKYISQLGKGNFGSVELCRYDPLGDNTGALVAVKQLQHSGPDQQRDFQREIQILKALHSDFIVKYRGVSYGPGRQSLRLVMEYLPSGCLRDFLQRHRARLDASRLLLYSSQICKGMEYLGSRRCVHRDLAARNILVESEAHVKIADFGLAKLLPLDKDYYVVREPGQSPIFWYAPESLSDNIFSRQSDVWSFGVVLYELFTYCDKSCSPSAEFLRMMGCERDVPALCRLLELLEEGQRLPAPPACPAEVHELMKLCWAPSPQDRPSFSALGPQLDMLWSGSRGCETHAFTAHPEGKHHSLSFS
- assay.remarks: JAK3 Inhibition Assay
- Assay type: biochemical
- assay.context: 1 nM JAK3, 1 μM poly(Glu)4Tyr, 5 μM ATP, 25° C.; kind of constant not given
Could you give me the number in µM? Just the number is fine.

Exam item: Respond only with JAK3 (μM), inhibition data recorded for `CC(C)[C@@](C)(Nc1nc(-c2c[nH]c3ncc(Cl)cc23)ncc1F)C(=O)NCC(F)(F)F`
Marked response: 0.006

Exam item: Respond only with JAK3 (μM), inhibition data recorded for `CC(C)[C@](C)(Nc1ccnc(-c2c[nH]c3ncc(Cl)cc23)n1)C(=O)NCC(F)(F)F`
Marked response: 0.001

Exam item: Respond only with JAK3 (μM), inhibition data recorded for `CC(C)[C@](C)(Nc1nc(-c2c[nH]c3ncc(Cl)cc23)ncc1F)C(=O)NCC(F)(F)F`
Marked response: 0.002

###

- system: JAK3 (Homo sapiens, UniProt P52333)
- assay.remarks: JAK3 Inhibition Assay
- Assay type: biochemical
- assay.context: 1 nM JAK3, 1 μM poly(Glu)4Tyr, 5 μM ATP, 25° C.; kind of constant not given
JAK3 (μM), inhibition data vs 0.004 µM: at or above is 1.0, below is 0.0.

Exam item: I'd appreciate it if you could say whether CC(C)[C@](C)(Nc1ccnc(-c2c[nH]c3ncccc23)n1)C(=O)NCC(F)(F)F [compound 5] has JAK3 (μM), inhibition data at least equal to 0.004 µM.
Marked response: 0.0

Exam item: I'd appreciate it if you could say whether CC(C)(Nc1nc(-c2c[nH]c3ncccc23)ncc1F)C(=O)NCC(F)(F)F [compound 4] has JAK3 (μM), inhibition data at least equal to 0.004 µM.
Marked response: 1.0

Exam item: I'd appreciate it if you could say whether CCNC(=O)C(C)(C)Nc1ncnc(-c2c[nH]c3ncccc23)n1 [compound 8] has JAK3 (μM), inhibition data at least equal to 0.004 µM.
Marked response: 1.0

Exam item: I'd appreciate it if you could say whether CC[C@@](C)(Nc1ccnc(-c2c[nH]c3ncccc23)n1)C(=O)NCC(F)(F)F [compound 1] has JAK3 (μM), inhibition data at least equal to 0.004 µM.
Marked response: 0.0

Exam item: I'd appreciate it if you could say whether CCN(C)C(=O)[C@](C)(CC)Nc1ccnc(-c2c[nH]c3ncccc23)n1 [compound 7] has JAK3 (μM), inhibition data at least equal to 0.004 µM.
Marked response: 1.0

Exam item: I'd appreciate it if you could say whether CC[C@@](C)(Nc1ccnc(-c2c[nH]c3ncc(Cl)cc23)n1)C(=O)NCC(F)(F)F [compound 16] has JAK3 (μM), inhibition data at least equal to 0.004 µM.
Marked response: 0.0

Exam item: I'd appreciate it if you could say whether CC(C)(Nc1ccnc(-c2c[nH]c3ncccc23)n1)C(=O)NCC(F)(F)F [compound 2] has JAK3 (μM), inhibition data at least equal to 0.004 µM.
Marked response: 0.0
